test system: HOP-92 NSCLC; test: NCI-60 one-dose screen, 48 h; conditions: 10 µM
About 83,000 compounds went through this panel and 20% of them were active in at least one assay; those are over-represented in the sample as a whole. Calls of active or inactive are those of the source. How the source made its calls: active means growth percent below 10; inactive means the rest. Where a SMILES comes first, the peptide text is derived from it.
Possible outcomes: active, inactive

- compound: "CC1CCC(C(C)C)C(NNC(N)=O)C1 (stereo not drawn)"
  classification: "inactive"
- compound: "O=C1C=C(Nc2ccccc2)c2ccccc2C1=O"
  classification: "inactive"
- compound: "Fc1ccc([I+]c2ccc(F)cc2)cc1"
  classification: "inactive"
- compound: "Nc1cc(N)c(N)cc1N"
  classification: "inactive"
- compound: "Cc1ccc(S(=O)(=O)c2ccccc2)cc1"
  classification: "inactive"
- compound: "NC(Cc1ccccc1)C(=O)NC(Cc1ccccc1)C(=O)O (stereo not drawn) (H-Phe-Phe-OH; configuration not given here)"
  classification: "inactive"
- compound: "CC(C)NC(=O)N/C=C(\\C#N)C(N)=O"
  classification: "inactive"
- compound: "CCCCCCCCCCNC(=O)CI"
  classification: "active"
